target: Human calcitonin receptor (Homo sapiens, UniProt P30988); construct: expressed in transfected cells; host or cells: BHK-570 (Hollex-1); experiment: CRE-luciferase assay for calcitonin mimetics (Hollex-1); format: cell-based; details: crude compound 25 μg/ml
Sequence (P30988 25-474): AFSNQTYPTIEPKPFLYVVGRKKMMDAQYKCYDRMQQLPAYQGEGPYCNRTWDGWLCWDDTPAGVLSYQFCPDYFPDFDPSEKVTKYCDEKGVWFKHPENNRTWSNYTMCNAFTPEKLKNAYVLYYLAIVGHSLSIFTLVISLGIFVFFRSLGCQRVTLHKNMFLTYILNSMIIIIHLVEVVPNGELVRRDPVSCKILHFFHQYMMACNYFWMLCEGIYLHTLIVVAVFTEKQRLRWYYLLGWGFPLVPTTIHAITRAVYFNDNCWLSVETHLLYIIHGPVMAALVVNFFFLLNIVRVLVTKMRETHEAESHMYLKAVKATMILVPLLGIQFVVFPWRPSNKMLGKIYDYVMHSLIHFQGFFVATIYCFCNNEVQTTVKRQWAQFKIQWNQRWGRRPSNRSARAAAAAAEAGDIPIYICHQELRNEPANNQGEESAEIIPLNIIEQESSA
VALUE TYPE: Luciferase induction (% of maximum luciferase induction produced by CT, 100 nM)

[[record]]
molecule_smiles = "CCNC(=O)[C@@H](Cc1ccc(I)cc1)NC(=O)Nc1cc(C(C)(C)C)ccc1C(C)(C)C"
experimental_value = "22.64%"

[[record]]
molecule_smiles = "CC(C)(C)c1ccc(C(C)(C)C)c(NC(=O)N[C@H](Cc2ccc3ccccc3c2)C(=O)NCc2ccc3ccccc3c2)c1"
experimental_value = "43.3%"

[[record]]
molecule_smiles = "C=CCNC(=O)[C@H](NC(=O)Nc1cc(C(C)(C)C)ccc1C(C)(C)C)c1ccccc1"
experimental_value = "8.0%"

[[record]]
molecule_smiles = "CCNC(=O)[C@@H](Cc1ccc(Cl)cc1)NC(=O)Nc1cc(C(C)(C)C)ccc1C(C)(C)C"
experimental_value = "41.52%"

[[record]]
molecule_smiles = "CC(C)(C)c1ccc(C(C)(C)C)c(NC(=O)N[C@H](Cc2ccc(Cl)cc2)C(=O)NCc2ccc3ccccc3c2)c1"
experimental_value = "40.21%"

[[record]]
molecule_smiles = "CCNC(=O)[C@@H](Cc1ccc(F)cc1)NC(=O)Nc1cc(C(C)(C)C)ccc1C(C)(C)C"
experimental_value = "46.84%"

[[record]]
molecule_smiles = "C=CCNC(=O)[C@@H](Cc1ccc(F)cc1)NC(=O)Nc1cc(C(C)(C)C)ccc1C(C)(C)C"
experimental_value = "31.63%"


* * *

biological target: Human calcitonin receptor (Homo sapiens, UniProt P30988); construct: expressed in transfected cells; host or cells: BHK-570 (Hollex-1); assay: CRE-luciferase assay for calcitonin mimetics (Hollex-1); format: cell-based; conditions: crude compound 50 μg/ml
The label depends only on Luciferase induction (% of maximum luciferase induction produced by CT, 100 nM): Fulfilled if it is at least 40%, Not fulfilled if it is smaller.

[[record]]
compound = "CCNC(=O)[C@@H](Cc1ccc(F)cc1)NC(=O)Nc1cc(C(C)(C)C)ccc1C(C)(C)C"
group_label = "Fulfilled"

[[record]]
compound = "CCNC(=O)[C@@H](Cc1ccc2ccccc2c1)NC(=O)Nc1cc(C(C)(C)C)ccc1C(C)(C)C"
group_label = "Not fulfilled"

[[record]]
compound = "C=CCNC(=O)[C@@H](Cc1ccc(F)cc1)NC(=O)Nc1cc(C(C)(C)C)ccc1C(C)(C)C"
group_label = "Not fulfilled"

[[record]]
compound = "CCNC(=O)C(Cc1ccc(OCC)cc1)NC(=O)Nc1cc(C(C)(C)C)ccc1C(C)(C)C (centres unmarked)"
group_label = "Not fulfilled"

[[record]]
compound = "CCNC(=O)[C@@H](Cc1ccc(I)cc1)NC(=O)Nc1cc(C(C)(C)C)ccc1C(C)(C)C"
group_label = "Not fulfilled"

[[record]]
compound = "C=CCNC(=O)[C@@H](Cc1ccccc1)NC(=O)Nc1cc(C(C)(C)C)ccc1C(C)(C)C"
group_label = "Fulfilled"

[[record]]
compound = "C=CCNC(=O)[C@H](NC(=O)Nc1cc(C(C)(C)C)ccc1C(C)(C)C)c1ccccc1"
group_label = "Not fulfilled"

[[record]]
compound = "CC(C)(C)c1ccc(C(C)(C)C)c(NC(=O)N[C@H](Cc2ccc3ccccc3c2)C(=O)NCc2ccc3ccccc3c2)c1"
group_label = "Fulfilled"

[[record]]
compound = "CCNC(=O)[C@@H](Cc1ccc(Cl)cc1)NC(=O)Nc1cc(C(C)(C)C)ccc1C(C)(C)C"
group_label = "Fulfilled"

[[record]]
compound = "C=CCNC(=O)[C@@H](Cc1ccc(I)cc1)NC(=O)Nc1cc(C(C)(C)C)ccc1C(C)(C)C"
group_label = "Not fulfilled"

[[record]]
compound = "CC(C)(C)c1ccc(C(C)(C)C)c(NC(=O)N[C@@H](C(=O)NCc2ccc3ccccc3c2)c2ccccc2)c1"
group_label = "Not fulfilled"

[[record]]
compound = "C=CCNC(=O)[C@@H](Cc1ccc(Cl)cc1)NC(=O)Nc1cc(C(C)(C)C)ccc1C(C)(C)C"
group_label = "Not fulfilled"

[[record]]
compound = "CC(C)(C)c1ccc(C(C)(C)C)c(NC(=O)N[C@H](Cc2ccc(I)cc2)C(=O)NCc2ccccc2)c1"
group_label = "Not fulfilled"

[[record]]
compound = "CCNC(=O)C(Cc1cn(CC)c2ccccc12)NC(=O)Nc1cc(C(C)(C)C)ccc1C(C)(C)C (centres unmarked)"
group_label = "Fulfilled"

[[record]]
compound = "CC(C)(C)c1ccc(C(C)(C)C)c(NC(=O)N[C@H](Cc2ccc(Cl)cc2)C(=O)NCc2ccc3ccccc3c2)c1"
group_label = "Not fulfilled"

[[record]]
compound = "CC(C)(C)c1ccc(C(C)(C)C)c(NC(=O)N[C@H](Cc2ccc(F)cc2)C(=O)NCc2ccccc2)c1"
group_label = "Fulfilled"

[[record]]
compound = "C=CCNC(=O)C(Cc1cn(CC=C)c2ccccc12)NC(=O)Nc1cc(C(C)(C)C)ccc1C(C)(C)C (centres unmarked)"
group_label = "Fulfilled"

[[record]]
compound = "CC(C)(C)c1ccc(C(C)(C)C)c(NC(=O)N[C@H](Cc2ccc(I)cc2)C(=O)NCc2ccc3ccccc3c2)c1"
group_label = "Fulfilled"

[[record]]
compound = "C=CCNC(=O)C(Cc1ccc(OCC=C)cc1)NC(=O)Nc1cc(C(C)(C)C)ccc1C(C)(C)C (centres unmarked)"
group_label = "Fulfilled"

[[record]]
compound = "C=CCNC(=O)[C@@H](Cc1ccc2ccccc2c1)NC(=O)Nc1cc(C(C)(C)C)ccc1C(C)(C)C"
group_label = "Fulfilled"

[[record]]
compound = "CC(C)(C)c1ccc(C(C)(C)C)c(NC(=O)N[C@H](Cc2ccc(Cl)cc2)C(=O)NCc2ccccc2)c1"
group_label = "Fulfilled"


* * *

biological target: Human calcitonin receptor (Homo sapiens); construct: expressed in transfected cells; host or cells: BHK-570 (Hollex-1); assay: CRE-luciferase assay for calcitonin mimetics (Hollex-1); format: cell-based; conditions: crude compound 25 μg/ml
// Luciferase induction (% of maximum luciferase induction produced by CT, 100 nM) lookup, one value per entry
VALUE TYPE: Luciferase induction (% of maximum luciferase induction produced by CT, 100 nM) (%)

[[record]]
compound = "C=CCNC(=O)[C@@H](Cc1ccc(Cl)cc1)NC(=O)Nc1cc(C(C)(C)C)ccc1C(C)(C)C [628-032]"
target_entity = "Human calcitonin receptor (Homo sapiens)"
experimental_value = 31.34

[[record]]
compound = "CC(C)(C)c1ccc(C(C)(C)C)c(NC(=O)N[C@H](Cc2ccc(Cl)cc2)C(=O)NCc2ccccc2)c1 [628-042]"
target_entity = "Human calcitonin receptor (Homo sapiens)"
experimental_value = 68.69

[[record]]
compound = "C=CCNC(=O)C(Cc1ccc(OCC=C)cc1)NC(=O)Nc1cc(C(C)(C)C)ccc1C(C)(C)C (stereo not shown) [628-015]"
target_entity = "Human calcitonin receptor (Homo sapiens)"
experimental_value = 72.17

[[record]]
compound = "CC(C)(C)c1ccc(C(C)(C)C)c(NC(=O)N[C@@H](C(=O)NCc2ccc3ccccc3c2)c2ccccc2)c1 [628-056]"
target_entity = "Human calcitonin receptor (Homo sapiens)"
experimental_value = 35.6


* * *

molecular target: Human calcitonin receptor (Homo sapiens, UniProt P30988); construct: expressed in transfected cells; host or cells: BHK-570 (Hollex-1); test: CRE-luciferase assay for calcitonin mimetics (Hollex-1); type: cell-based; details: crude compound 12.5 μg/ml
# Luciferase induction (% of maximum luciferase induction produced by CT, 100 nM) values compiled below
VALUE TYPE: Luciferase induction (% of maximum luciferase induction produced by CT, 100 nM) (%)

[[record]]
compound = "C=CCNC(=O)[C@@H](Cc1ccc(F)cc1)NC(=O)Nc1cc(C(C)(C)C)ccc1C(C)(C)C [628-033]"
u = "%"
experimental_value = 27.68

[[record]]
compound = "CCNC(=O)C(Cc1ccc(OCC)cc1)NC(=O)Nc1cc(C(C)(C)C)ccc1C(C)(C)C (centres unmarked) [628-007]"
u = "%"
experimental_value = 31.97

[[record]]
compound = "C=CCNC(=O)[C@@H](Cc1ccc2ccccc2c1)NC(=O)Nc1cc(C(C)(C)C)ccc1C(C)(C)C [628-035]"
u = "%"
experimental_value = 43.25

[[record]]
compound = "CC(C)(C)c1ccc(C(C)(C)C)c(NC(=O)N[C@H](Cc2ccc(Cl)cc2)C(=O)NCc2ccc3ccccc3c2)c1 [628-052]"
u = "%"
experimental_value = 36.63

[[record]]
compound = "CC(C)(C)c1ccc(C(C)(C)C)c(NC(=O)N[C@H](Cc2ccc(I)cc2)C(=O)NCc2ccc3ccccc3c2)c1 [628-054]"
u = "%"
experimental_value = 42.54

[[record]]
compound = "CC(C)(C)c1ccc(C(C)(C)C)c(NC(=O)N[C@H](Cc2ccc3ccccc3c2)C(=O)NCc2ccccc2)c1 [628-045]"
u = "%"
experimental_value = 42.49

[[record]]
compound = "CCNC(=O)C(Cc1cn(CC)c2ccccc12)NC(=O)Nc1cc(C(C)(C)C)ccc1C(C)(C)C (centres unmarked) [628-008]"
u = "%"
experimental_value = 20.07

[[record]]
compound = "C=CCNC(=O)C(Cc1cn(CC=C)c2ccccc12)NC(=O)Nc1cc(C(C)(C)C)ccc1C(C)(C)C (centres unmarked) [628-016]"
u = "%"
experimental_value = 76.44

